- experiment.description: Inhibition of recombinant rat/human ADAMTS12 hybrid using HiLyteFluor-488 DELSSMVLELRGLRT-K(QXL520)-E-NH2 as substrate incubated for 120 mins and measured by FRET assay
Kindly supply the reported pIC50 values for the records listed here.
One number for each entry, as −log10 of the molar value.

Consider the following illustrative entries.
{"compound": "Cn1ccnc1C1(CNC(=O)c2cnn(-c3ccc(F)c(F)c3)n2)NC(=O)NC1=O (centres undefined)", "measurement.type": "pIC50", "result": 7.34}
{"compound": "CC(C)C1(CNC(=O)c2cnn(-c3ccc(F)cc3F)n2)NC(=O)NC1=O (racemic)", "measurement.type": "pIC50", "result": 4.70}
{"compound": "O=C1NC(=O)[C@](CNC(=O)c2cnn(-c3ccccc3)c2)(C2CC2)N1", "measurement.type": "pIC50", "result": 5.74}
{"compound": "CC(C)C1(CNC(=O)c2cnn(-c3ccc(F)c(F)c3)n2)NC(=O)NC1=O (racemic)", "measurement.type": "pIC50", "result": 5.60}

// for each compound in input: emit pIC50
1. O=C1NC(=O)C(CNC(=O)c2cnn(-c3ccc(F)cc3)n2)(c2ccnn2CC(F)(F)F)N1 (racemic)
2. O=C1NC(=O)C(CNC(=O)c2cnn(-c3ccc(F)cc3)n2)(c2ccccn2)N1 (racemic)
3. O=C1NC(=O)C(CNC(=O)c2cnn(-c3ccc(F)cc3F)n2)(C2CCC2)N1 (centres undefined)

Reply:
[5.49, 5.52, 5.07]

Ask: Supply recorded pIC50 for O=C1NC(=O)C(CNC(=O)c2cnn(-c3ccccc3)n2)(c2ccncc2)N1 (racemic) here.
Reply: 5.55

---

Please go through the items and note down their pIC50.
- experiment.description: Inhibition of recombinant rat/human ADAMTS12 hybrid using HiLyteFluor-488 DELSSMVLELRGLRT-K(QXL520)-E-NH2 as substrate incubated for 120 mins and measured by FRET assay
Answers are plain numbers, as −log10 of the molar value.

Would you please look over these solved cases?
{"molecule": "O=C1NC(=O)C(CNC(=O)c2cnn(-c3ccc(F)cc3)n2)(C2CCOCC2)N1 (racemic)", "pIC50": 5.03}
{"molecule": "O=C1NC(=O)C(CNC(=O)c2cnn(-c3ccccc3)n2)(C2CCC2)N1 (racemic)", "pIC50": 4.85}
{"molecule": "CC(C)C1(CNC(=O)c2cnn(-c3cccc(F)c3)n2)NC(=O)NC1=O (stereo in doubt)", "pIC50": 5.64}
{"molecule": "O=C1NC(=O)[C@](CNC(=O)c2cnn(-c3ccc(F)c(Cl)c3)n2)(C2CC2)N1", "pIC50": 6.60}
{"molecule": "Cc1cccc(-n2ncc(C(=O)NC[C@@]3(C4CC4)NC(=O)NC3=O)n2)c1", "pIC50": 5.66}

# return pIC50 for each item in the list
1. O=C1NC(=O)C(CNC(=O)c2cnn(-c3ccc(F)c(Cl)c3)n2)(c2nccs2)N1 (stereo in doubt)
2. CC(C)(C)C1(CNC(=O)c2cnn(-c3ccc(C(F)(F)F)c(F)c3)n2)NC(=O)NC1=O (racemic)
3. O=C1NC(=O)[C@](CNC(=O)c2cnn(-c3ccccc3)n2)(C2CC2)N1
4. CC1(CNC(=O)c2cnn(-c3ccc(F)cc3)n2)NC(=O)NC1=O (racemic)
5. CC1(C)CC1C1(CNC(=O)c2cnn(-c3ccccc3)n2)NC(=O)NC1=O (stereo in doubt; form 1)
6. O=C1NC(=O)C(CNC(=O)c2cnn(-c3ccc(F)cc3F)n2)(c2nccs2)N1 (racemic)
7. O=C1NC(=O)[C@](CNC(=O)c2nnc(-c3ccc(F)cc3)o2)(C2CC2)N1

Reply:
1. 6.11
2. 4.30
3. 5.84
4. 5.30
5. 4.89
6. 5.18
7. 4.92
